Values compiled from patent US20240246913A1.

- study-system: VIM-1 (Pseudomonas aeruginosa, UniProt A0A0F7KYQ8)
- measurement-protocol: MBL inhibition, FC-5 fluorescence assay, VIM-1
- Assay type: biochemical
- reported-conditions: pIC50 VIM-1, FC-5 cephalosporin substrate, ranges of obtained pIC50
pIC50: −log10 of the molar value.
Items are presented alongside their recorded pIC50.

compound: CC(NC(=O)Oc1ccc(CN)cc1)c1cccc2c(-c3ccc(CS(C)(=O)=O)c(F)c3)c(C(=O)O)[nH]c12 (stereo not drawn)
pIC50: < 8.00

compound: CC(c1cccc2c(-c3ccc(CS(C)(=O)=O)c(F)c3)c(C(=O)O)[nH]c12)n1cc(CCC[N+](C)(C)C)oc1=O (stereo not drawn)
pIC50: < 8.00

compound: CC(c1cccc2c(-c3ccc(CS(C)(=O)=O)c(F)c3)c(C(=O)O)[nH]c12)N1CCNCC1 (stereo not drawn)
pIC50: < 8.00

====

- measurement-protocol: Plasma protein binding, equilibrium dialysis, mouse plasma
- Assay type: in vitro ADME
- reported-conditions: pH 7.4, equilibrium dialysis (RED) 4 hours at 37° C., read-out: Plasma protein binding, fu, Mouse

molecule: C[C@@H](c1cccc2c(-c3ccc(NS(C)(=O)=O)c(C#N)c3)c(C(=O)O)[nH]c12)n1cc(CN2CC(N)C2)oc1=O
fraction unbound at 4 h, 10 μM: 0.005 to 0.05

molecule: C[C@@H](c1cccc2c(-c3ccc(CS(C)(=O)=O)c(F)c3)c(C(=O)O)[nH]c12)n1cc(CCC2(N)CC2)oc1=O
fraction unbound at 4 h, 10 μM: 0.005 to 0.05

molecule: CC(OC(=O)N1CCC(CN)CC1)c1cccc2c(-c3ccc(CS(C)(=O)=O)c(F)c3)c(C(=O)O)[nH]c12 (stereo not drawn)
fraction unbound at 4 h, 10 μM: 0.005 to 0.05

molecule: C[C@@H](c1cccc2c(-c3ccc4c(c3)CNC4=O)c(C(=O)O)[nH]c12)N1C[C@]2(C[C@@H](CN)C2)OC1=O
fraction unbound at 4 h, 10 μM: 0.005 to 0.05

molecule: CC(NC(=O)[C@H]1CC[C@H](CN)CC1)c1cccc2c(-c3ccc(CS(C)(=O)=O)c(F)c3)c(C(=O)O)[nH]c12 (mixture of isomers)
fraction unbound at 4 h, 10 μM: 0.05 to 0.25

molecule: C[C@@H](c1cccc2c(-c3cncc(O)c3)c(C(=O)O)[nH]c12)N1C[C@]2(C[C@@H](CN)C2)OC1=O
fraction unbound at 4 h, 10 μM: 0.005 to 0.05

molecule: CC(c1cccc2c(-c3ccc(CS(C)(=O)=O)c(F)c3)c(C(=O)O)[nH]c12)n1cc(CNC(=O)CN)oc1=O (stereo not drawn)
fraction unbound at 4 h, 10 μM: 0.05 to 0.25

molecule: C[C@@H](c1cccc2c(-c3ccc(CS(C)(=O)=O)c(F)c3)c(C(=O)O)[nH]c12)N1CC2(CN(C(=N)N)C2)OC1=O
fraction unbound at 4 h, 10 μM: 0.005 to 0.05

molecule: C[C@@H](c1cccc2c(-c3ccc(CS(C)(=O)=O)c(F)c3)c(C(=O)O)[nH]c12)n1cc(CN2CC(N)C2)oc1=O
fraction unbound at 4 h, 10 μM: 0.005 to 0.05

molecule: C[C@@H](c1cccc2c(-c3ccc(NS(C)(=O)=O)c(C#N)c3)c(C(=O)O)[nH]c12)N1C[C@]2(C[C@@H](CN)C2)OC1=O
fraction unbound at 4 h, 10 μM: 0.05 to 0.25

molecule: C[C@@H](c1cccc2c(-c3c(F)cc(NS(C)(=O)=O)cc3F)c(C(=O)O)[nH]c12)n1cc(CN2CC(N)C2)oc1=O
fraction unbound at 4 h, 10 μM: 0.005 to 0.05

molecule: CC(OCC1CCNCC1)c1cccc2c(-c3ccc(CS(C)(=O)=O)c(F)c3)c(C(=O)O)[nH]c12 (stereo not drawn)
fraction unbound at 4 h, 10 μM: 0.05 to 0.25

molecule: CC(Oc1ccc(CN)cc1)c1cccc2c(-c3ccc(CS(C)(=O)=O)c(F)c3)c(C(=O)O)[nH]c12 (stereo not drawn)
fraction unbound at 4 h, 10 μM: 0.005 to 0.05

molecule: CC(c1cccc2c(-c3ccc(CS(C)(=O)=O)c(F)c3)c(C(=O)O)[nH]c12)n1cc(CN)oc1=O (stereo not drawn)
fraction unbound at 4 h, 10 μM: 0.05 to 0.25

molecule: C[C@@H](c1cccc2c(-c3ccc(NS(C)(=O)=O)c(F)c3)c(C(=O)O)[nH]c12)N1C[C@]2(C[C@@H](CN)C2)OC1=O
fraction unbound at 4 h, 10 μM: 0.05 to 0.25

molecule: COc1cc(-c2c(C(=O)O)[nH]c3c([C@H](C)N4C[C@]5(C[C@@H](CN)C5)OC4=O)cccc23)ccn1
fraction unbound at 4 h, 10 μM: 0.005 to 0.05

molecule: C[C@@H](c1cccc2c(-c3cc[nH]c(=O)c3)c(C(=O)O)[nH]c12)n1cc(CN2CC(N)C2)oc1=O
fraction unbound at 4 h, 10 μM: > 0.25

molecule: C[C@@H](c1cccc2c(-c3ccnc(O)c3)c(C(=O)O)[nH]c12)N1C[C@]2(C[C@@H](CN)C2)OC1=O
fraction unbound at 4 h, 10 μM: 0.005 to 0.05

molecule: C[C@@H](c1cccc2c(-c3ccc(NS(C)(=O)=O)c(F)c3)c(C(=O)O)[nH]c12)n1cc(CN2CC(N)C2)oc1=O
fraction unbound at 4 h, 10 μM: 0.005 to 0.05

molecule: CC(OCc1ccc(CN)cc1)c1cccc2c(-c3ccc(NS(C)(=O)=O)c(C#N)c3)c(C(=O)O)[nH]c12 (stereo not drawn)
fraction unbound at 4 h, 10 μM: 0.05 to 0.25

molecule: CC(NC(=O)c1ccc(CN)cc1)c1cccc2c(-c3ccc(CN4CCOCC4)nc3)c(C(=O)O)[nH]c12 (stereo not drawn)
fraction unbound at 4 h, 10 μM: 0.005 to 0.05

molecule: C[C@@H](OCc1ccc(CN)cc1)c1cccc2c(-c3ccc(CS(C)(=O)=O)c(Cl)c3)c(C(=O)O)[nH]c12 (single isomer, unassigned)
fraction unbound at 4 h, 10 μM: < 0.005

molecule: C[C@@H](c1cccc2c(-c3ccc(CS(C)(=N)=O)c(F)c3)c(C(=O)O)[nH]c12)N1C[C@]2(C[C@@H](CN)C2)OC1=O (stereo partly drawn)
fraction unbound at 4 h, 10 μM: 0.05 to 0.25

molecule: C[C@@H](c1cccc2c(-c3ccc(NS(=O)(=O)C4COC4)c(F)c3)c(C(=O)O)[nH]c12)N1C[C@]2(C[C@@H](CN)C2)OC1=O
fraction unbound at 4 h, 10 μM: 0.05 to 0.25

molecule: C[C@@H](c1cccc2c(-c3ccc(=O)[nH]c3)c(C(=O)O)[nH]c12)N1C[C@]2(C[C@@H](CN)C2)OC1=O
fraction unbound at 4 h, 10 μM: 0.005 to 0.05

molecule: C[C@@H](c1cccc2c(-c3ccc(CS(C)(=O)=O)c(F)c3)c(C(=O)O)[nH]c12)N1CC2(CCC(N)CC2)OC1=O (stereo partly drawn)
fraction unbound at 4 h, 10 μM: > 0.25

molecule: C[C@@H](c1cccc2c(-c3ccc(CS(C)(=O)=O)c(F)c3)c(C(=O)O)[nH]c12)N1C[C@]2(C[C@H](CN)C2)OC1=O
fraction unbound at 4 h, 10 μM: 0.005 to 0.05

====

- study-system: VIM-2 (Escherichia coli)
- measurement-protocol: MBL inhibition, FC-5 fluorescence assay, VIM-2
- Format: biochemical
- reported-conditions: pIC50 VIM-2, FC-5 cephalosporin substrate, ranges of obtained pIC50
pIC50: −log10 of the molar value.
Items are presented alongside their recorded pIC50.

compound: CC(NC(=O)Oc1ccc(CN)cc1)c1cccc2c(-c3ccc(CS(C)(=O)=O)c(F)c3)c(C(=O)O)[nH]c12 (stereo not drawn) [IC-101]
pIC50: 8.00 to 9.00
//
compound: CC(c1cccc2c(-c3ccc(CS(C)(=O)=O)c(F)c3)c(C(=O)O)[nH]c12)n1cc(CCC[N+](C)(C)C)oc1=O (stereo not drawn) [IC-76]
pIC50: < 8.00
//
compound: CC(c1cccc2c(-c3ccc(CS(C)(=O)=O)c(F)c3)c(C(=O)O)[nH]c12)N1CCNCC1 (stereo not drawn) [IC-12]
pIC50: 8.00 to 9.00

====

Items are presented alongside their recorded fraction unbound at 4 h, 10 μM.
- measurement-protocol: Plasma protein binding, equilibrium dialysis, human plasma
- Type: in vitro ADME
- reported-conditions: pH 7.4, equilibrium dialysis (RED) 4 hours at 37° C., read-out: Plasma protein binding, fu, Human
attribute-measured: fraction unbound at 4 h, 10 μM

molecule: C[C@@H](c1cccc2c(-c3c[nH]c(=O)c(F)c3)c(C(=O)O)[nH]c12)N1C[C@]2(C[C@@H](CN)C2)OC1=O [IC-26]
result: 0.05 to 0.25
--
molecule: CC(c1cccc2c(-c3ccc(CS(C)(=O)=O)c(F)c3)c(C(=O)O)[nH]c12)n1cc(CCC2(N)CC2)oc1=O (centres unmarked) [IC-74]
result: 0.05 to 0.25
--
molecule: C[C@@H](c1cccc2c(-c3c(F)cc(NS(C)(=O)=O)cc3F)c(C(=O)O)[nH]c12)N1C[C@]2(C[C@@H](CN)C2)OC1=O [IC-21]
result: 0.05 to 0.25
--
molecule: C[C@@H](c1cccc2c(-c3ccc(CS(C)(=O)=O)c(F)c3)c(C(=O)O)[nH]c12)N1C[C@]2(C[C@@H](CN)C2)OC1=O [IC-60]
result: > 0.25
--
molecule: CC(NS(C)(=O)=O)c1cccc2c(-c3cc(Cl)cc(Cl)c3)c(C(=O)O)[nH]c12 (centres unmarked) [IC-2]
result: < 0.005
--
molecule: C[C@@H](c1cccc2c(-c3cnn(C)c(=O)c3)c(C(=O)O)[nH]c12)N1C[C@]2(C[C@@H](CN)C2)OC1=O [IC-28]
result: 0.05 to 0.25
--
molecule: CC(c1cccc2c(-c3ccc(CS(C)(=O)=O)c(F)c3)c(C(=O)O)[nH]c12)n1cc(CNC(=O)CN)oc1=O (centres unmarked) [IC-80]
result: > 0.25
--
molecule: CC(OCC1CC[N+](C)(C)CC1)c1cccc2c(-c3ccc(CS(C)(=O)=O)c(F)c3)c(C(=O)[O-])[nH]c12 (centres unmarked) [IC-90]
result: > 0.25
--
molecule: CC(OC(=O)N1CCC(CN)CC1)c1cccc2c(-c3ccc(CS(C)(=O)=O)c(F)c3)c(C(=O)O)[nH]c12 (centres unmarked) [IC-95]
result: 0.05 to 0.25
--
molecule: C[C@@H](c1cccc2c(-c3ccc(CS(C)(=O)=O)c(F)c3)c(C(=O)O)[nH]c12)n1cc(CCC2(N)CC2)oc1=O [IC-69]
result: 0.05 to 0.25
--
molecule: C[C@@H](c1cccc2c(-c3ccc(CS(C)(=O)=O)c(F)c3)c(C(=O)O)[nH]c12)N1C[C@]2(C[C@H](CN)C2)OC1=O [IC-61]
result: 0.05 to 0.25
--
molecule: C[C@@H](c1cccc2c(-c3ccc(NS(C)(=O)=O)c(F)c3)c(C(=O)O)[nH]c12)n1cc(CN2CC(N)C2)oc1=O [IC-57]
result: 0.05 to 0.25
--
molecule: C[C@@H](c1cccc2c(-c3ccnc(O)c3)c(C(=O)O)[nH]c12)N1C[C@]2(C[C@@H](CN)C2)OC1=O [IC-18]
result: > 0.25
--
molecule: C[C@@H](c1cccc2c(-c3ccc(NS(C)(=O)=O)c(F)c3)c(C(=O)O)[nH]c12)N1C[C@]2(C[C@@H](CN)C2)OC1=O [IC-14]
result: 0.05 to 0.25
